Biological target: Adenosine receptor A1 (Gallus gallus)
Sequence (P49892 whole entry): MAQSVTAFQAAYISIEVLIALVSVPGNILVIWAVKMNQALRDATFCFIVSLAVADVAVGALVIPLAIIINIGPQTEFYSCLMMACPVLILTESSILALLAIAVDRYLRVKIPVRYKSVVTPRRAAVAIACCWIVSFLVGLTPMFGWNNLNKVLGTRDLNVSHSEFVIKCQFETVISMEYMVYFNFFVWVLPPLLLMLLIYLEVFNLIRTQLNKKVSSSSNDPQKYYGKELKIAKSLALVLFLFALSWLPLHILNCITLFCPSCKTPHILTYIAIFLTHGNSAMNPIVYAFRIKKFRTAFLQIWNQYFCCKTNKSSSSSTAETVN
I'd appreciate it if you marked entries label 1 when Ki is lower than 7 nM and label 0 when it is not.

> print(dat)
                                   compound  assigned.category
1  CCOC(=O)C1=C(c2ccccc2)N=C(C)C(C(=O)OCC)C1/C=C/c1ccccc1 (stereo not given)            label 0
2  CNC(=O)C1OC(n2cnc3c(NCc4cccc(I)c4)ncnc32)C(O)C1O (stereo not given)            label 0
3  OC[C@H]1O[C@@H](n2cnc3c(NC4CCCCC4)ncnc32)[C@H](O)[C@@H]1O [CHA]            label 1
4  CCNC(=O)[C@H]1O[C@@H](n2cnc3c(N)ncnc32)[C@H](O)[C@@H]1O            label 0

###

Biological target: Adenosine receptor A3 (Gallus gallus)
Sequence (A0A8V1ACC1 whole entry): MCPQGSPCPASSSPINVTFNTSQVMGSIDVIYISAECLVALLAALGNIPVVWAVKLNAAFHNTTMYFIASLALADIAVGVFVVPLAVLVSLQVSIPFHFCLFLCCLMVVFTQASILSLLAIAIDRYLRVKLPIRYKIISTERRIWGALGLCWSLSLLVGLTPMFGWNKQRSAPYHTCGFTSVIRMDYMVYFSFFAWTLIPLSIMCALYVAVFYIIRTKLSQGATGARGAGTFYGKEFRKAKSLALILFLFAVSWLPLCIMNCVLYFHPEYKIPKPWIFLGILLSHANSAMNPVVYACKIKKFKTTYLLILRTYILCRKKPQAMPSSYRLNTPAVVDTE
readout.type: log10 of Ki (log10 of the value in nM)

> print(dat)
                                   molecule  numeric.value
1  CNC(=O)C1OC(n2cnc3c(NCc4cccc(I)c4)ncnc32)C(O)C1O (configuration not stated)           0.45
2  Cc1ccc(-c2oc3ccc(Cl)cc3c(=O)c2Cl)c(OC(C)C)c1           3.52
3  CC(Cc1ccccc1)Nc1ncnc2c1ncn2C1OC(CO)C(O)C1O (configuration not stated) [R-N6-(2-phenylisopropyl) adenosine]           0.05
4  CC(C=C[C@@]1(O)C(C)=CC(=O)CC1(C)C)=CC(=O)O [CAS_14375-45-2]           1.75
5  CCNC(=O)[C@H]1O[C@@H](n2cnc3c(N)ncnc32)[C@H](O)[C@@H]1O           1.57
6  CCOC(=O)C1=C(c2ccccc2)N=C(C)C(C(=O)OCC)C1/C=C/c1ccccc1 (configuration not stated)           3.00
7  Nc1ncnc2c1ncn2[C@@H]1O[C@H](C(=O)NCc2ccccc2)[C@@H](O)[C@H]1O [B-NECA]           0.83
